Reported endpoint: melting point

Would you mind giving melting point for every compound in the list below?
1. CCC1C=NN(/C(N)=N/S(=O)(=O)c2c(Cl)nc3sccn23)C1 (single isomer, unassigned; (+)) [(+)123]
2. CCC1CN(/C(N)=N/S(=O)(=O)c2ccc(Cl)s2)N=C1C (stereo not shown)
3. CN1CCN(/C(=N\S(=O)(=O)c2ccc(F)cc2)N2CCC(c3ccc(Cl)cc3)=N2)CC1
4. CCN/C(=N\S(=O)(=O)c1cccc(Cl)c1)N1N=CCC1c1ccccc1 (stereo not shown)

[reply]
1. 146 to 147 °C
2. 155 to 156 °C
3. 179 to 184 °C
4. 124 to 126 °C

====

Reported endpoint: melting point

Known melting point results, listed for orientation:
CCN/C(=N\S(=O)(=O)c1c(Cl)nc2sccn12)N1CC2(C=N1)CCCC2
146 to 147 °C
CC1=NN(/C(N)=N/S(=O)(=O)c2cccc(Cl)c2)CC1(C)C
135 to 137 °C
N/C(=N\S(=O)(=O)c1ccc(Cl)s1)N1CC2(C=N1)CCCC2
184 °C
CN/C(=N\S(=O)(=O)c1ccc(F)cc1)N1CCC(c2ccc(Cl)cc2)=N1
188 to 189 °C

Now consider a different compound.
Reported melting point of `CC1(C)C=NN(/C(N)=N/S(=O)(=O)c2ccc(Cl)s2)C1` : 162 to 164 °C

====

Molecular target: UniProt P50406
Sequence (P50406 whole entry): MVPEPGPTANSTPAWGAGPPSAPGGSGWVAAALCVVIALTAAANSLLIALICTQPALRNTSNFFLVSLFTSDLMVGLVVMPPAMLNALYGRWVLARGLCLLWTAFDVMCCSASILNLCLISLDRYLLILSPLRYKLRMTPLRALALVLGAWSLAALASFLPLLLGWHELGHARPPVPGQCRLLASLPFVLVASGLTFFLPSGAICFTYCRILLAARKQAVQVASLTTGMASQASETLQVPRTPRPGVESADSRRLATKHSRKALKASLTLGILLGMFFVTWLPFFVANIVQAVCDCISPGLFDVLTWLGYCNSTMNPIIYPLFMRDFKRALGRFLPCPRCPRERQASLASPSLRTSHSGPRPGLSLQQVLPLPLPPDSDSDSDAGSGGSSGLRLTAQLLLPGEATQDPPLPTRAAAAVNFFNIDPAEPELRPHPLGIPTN
Assay: In vitro functional activity (antagonism) on human 5-HT6 receptors, CHO-human-5HT6-Aequorin assay
Format: cell-based
Set-up: host or cells: CHO/Gα16/mtAEQ/h5HT6-A1 (CHO AequoScreen recombinant cell line)
Conditions: antagonism of 10^-8 M α-methylserotonin induced luminescence, CHO-human-5HT6-Aequorin cells; read-out: 5-HT6 pA2 (converted)
Reported endpoint: Kb (nM)
One number for each entry, in nM.

Known Kb results, listed for orientation:
CN/C(=N\S(=O)(=O)c1c(Cl)nc2sccn12)N1CC2(C=N1)CCOCC2
10
CCN/C(=N\S(=O)(=O)c1c(Cl)nc2sccn12)N1CC(CC)C=N1 (single isomer, unassigned; (+)) [(+)-41]
1.26
CCN/C(=N\S(=O)(=O)c1cccc2nsnc12)N1CC(CC)C=N1 (stereo not drawn)
79.4
CCN/C(=N\S(=O)(=O)c1ccc(Cl)s1)N1CC2(C=N1)CCOCC2
20
CCN/C(=N\S(=O)(=O)c1cccc(Cl)c1)N1CCC=N1
20
CN/C(=N\S(=O)(=O)c1ccc(Cl)s1)N1CC(C)(C)C=N1
50.1
CCN/C(=N\S(=O)(=O)c1cccc(Cl)c1)N1N=CCC1c1cccnc1 (stereo not drawn)
12.6
CCN/C(=N\S(=O)(=O)c1ccc(Cl)s1)N1CC(C)(C)C(C)=N1
63.1
CCN/C(=N\S(=O)(=O)c1cccc(Cl)c1)N1N=CC2CN(C)CCC21 (stereo not drawn)
3.98
CCC1CN(/C(N)=N/S(=O)(=O)c2c(Cl)nc3sccn23)N=C1C (stereo not drawn)
6.31

Would you mind giving Kb for every molecule in the list below?
1. CN/C(=N\S(=O)(=O)c1cccc(Cl)c1)N1CC2(C=N1)CCOCC2
2. N/C(=N\S(=O)(=O)c1ccc(Cl)s1)N1CC2(C=N1)CCOCC2
3. CN/C(=N\S(=O)(=O)c1ccc(Cl)s1)N1CC2(C=N1)CCOCC2
4. CCN/C(=N\S(=O)(=O)c1cccc(Cl)c1)N1N=CCC1c1ccsc1 (stereo not drawn)

[reply]
[200, 31.6, 79.4, 31.6]

Would you mind giving Kb for every molecule in the list below?
1. CCN/C(=N\S(=O)(=O)c1c(Cl)nc2sccn12)N1CC2(C=N1)CCCC2
2. CCC1C=NN(/C(=N/S(=O)(=O)c2ccccc2Cl)NCc2ccccc2)C1 (stereo not drawn)
3. CCC1C=NN(/C(N)=N/S(=O)(=O)c2ccc(Cl)cc2)C1 (stereo not drawn)
4. CCN/C(=N\S(=O)(=O)c1cccc(Cl)c1)N1CC(c2ccccc2)C=N1 (stereo not drawn)

[reply]
1: 0.158; 2: 200; 3: 1260; 4: 316
